Source: patent US20120192315A1

- test.target: GmRLK8-1 LRR domain (from the RLK protein at Rhg4) (Glycine max)
- protocol.notes: fluorescence (luminescence spectrometry) titration of peptide with purified LRR domain, in vitro
Readings of Kd for the listed binders
attribute.measured: Kd (nM)

{"binder": "KRLSPSGPDPHHH (modifications not checked) [peptide N (HgCLV3)]", "attribute.measured": "Kd", "measured": 78}
{"binder": "CTLSRLKTLDISNNALNGNLPATLSNLS (modifications not checked) [peptide L (GmLRR, GmRLK18-1)]", "attribute.measured": "Kd", "measured": 135}
{"binder": "DLPLAPADRLAPGGPDPQHNVRAPPRKP (modifications not checked) [peptide 2L (GmNIC1, LjCLE-R2 and LjCLE-R1)]", "attribute.measured": "Kd", "measured": 338}
{"binder": "KGLGLHEELRTVPSGPDPLHHHVNPPRQPR (modifications not checked) [peptide 3L (GmCLE3, AtCLE3, AtClv3 unmodified)]", "attribute.measured": "Kd", "measured": 142}
{"binder": "AHEVPSGPNPISNR (modifications not checked) [peptide T (GmTDIF, ZeTDIF)]", "attribute.measured": "Kd", "measured": 204}
{"binder": "SKRRVPNGPDPIHNR (modifications not checked) [peptide 36 (GmCLE34, AtCLE36, MtCLE36)]", "attribute.measured": "Kd", "measured": 52}
{"binder": "RTVPSGPDPLHH (modifications not checked) [peptide 3 (GmCLE3, AtCLE3, AtClv3 unmodified)]", "attribute.measured": "Kd", "measured": 50}
